- ASSAY OVERVIEW: Hemolysis assay
- Format: cell-based
- EXPERIMENTAL CONTEXT: human, washed erythrocytes from EDTA-blood, pH 7.4
Residues, ends and D or L forms follow the SMILES beside them.
Each record here notes measured HC50 at 1 h.
READOUT: HC50 at 1 h (µM)

MOLECULE: CCCCCCCCCCCCCCCC(=O)NCC(=O)N[C@@H](CCCNC(=N)N)C(=O)N[C@@H](CCCNC(=N)N)C(=O)NCC(=O)NCC(=O)N[C@@H](CCCNC(=N)N)C(=O)NCC(=O)NCC(=O)N[C@@H](CCCNC(=N)N)C(=O)O [Pal-GR9] (HELM PEPTIDE1{[CCCCCCCCCCCCCCCC(=O)[*:2]].G.R.R.G.G.R.G.G.R}$$$$V2.0)
RELATION SIGN: >
OBSERVED RESULT: 257

MOLECULE: CCCCCCCCCCCCCCCC(=O)NCC(=O)N[C@H](CCCNC(=N)N)C(=O)N[C@H](CCCNC(=N)N)C(=O)NCC(=O)NCC(=O)N[C@H](CCCNC(=N)N)C(=O)NCC(=O)NCC(=O)N[C@H](CCCNC(=N)N)C(=O)NCC(=O)N[C@H](CCCNC(=N)N)C(=O)NCC(=O)N[C@H](CCCNC(=N)N)C(=O)O [D-Pal-GR13] (HELM PEPTIDE1{[CCCCCCCCCCCCCCCC(=O)[*:2]].G.[dR].[dR].G.G.[dR].G.G.[dR].G.[dR].G.[dR]}$$$$V2.0)
RELATION SIGN: =
OBSERVED RESULT: 24.5

MOLECULE: CCCCCCCCCCCCCCCC(=O)NCC(=O)N[C@@H](CCCNC(=N)N)C(=O)N[C@@H](CCCNC(=N)N)C(=O)NCC(=O)NCC(=O)N[C@@H](CCCNC(=N)N)C(=O)NCC(=O)NCC(=O)N[C@@H](CCCNC(=N)N)C(=O)NCC(=O)N[C@@H](CCCNC(=N)N)C(=O)NCC(=O)N[C@@H](CCCNC(=N)N)C(=O)O [Pal-GR13] (HELM PEPTIDE1{[CCCCCCCCCCCCCCCC(=O)[*:2]].G.R.R.G.G.R.G.G.R.G.R.G.R}$$$$V2.0)
RELATION SIGN: =
OBSERVED RESULT: 62
